pIC50, PI3K γ (Homo sapiens): measured values
pIC50: −log10 of the molar value.

Example molecules with recorded pIC50:
Nc1nc2cc(-c3ccc4ncc(N5CCC(O)CC5)cc4n3)ccc2o1 [Compound 62] = > 6.00
Nc1nc2cc(-c3ccc4ncc(N5CC(N6CCN(CCO)CC6)C5)cc4n3)ccc2o1 [Compound 65] = > 6.00
C[C@@H]1CN(c2cnc3ccc(-c4ccc5oc(N)nc5c4)nc3c2)CCN1 [Compound 48] = > 5.00
C[C@H]1CN(c2cnc3ccc(-c4ccc5oc(N)nc5c4)nc3n2)CCN1 [Compound 1] = > 5.00

Input line: Reported pIC50 for Nc1nc2cc(-c3ccc4ncc(N5CC(N6CCN(CCO)CC6)C5)nc4n3)ccc2o1 [Compound 46] : what is it?
Output line: > 5.00

Input line: Reported pIC50 for Nc1nc2cc(-c3ccc4ncc(N5CC(N6CCN(CC7CC7)CC6)C5)cc4n3)ccc2o1 [Compound 60] : what is it?
Output line: > 5.00

Input line: Reported pIC50 for C[C@@H]1CN(C2CN(c3cnc4ccc(-c5ccc6oc(N)nc6c5)nc4c3)C2)CCN1C [Compound 57] : what is it?
Output line: > 5.00

Input line: Reported pIC50 for C[C@@H]1COCCN1C1CN(c2cnc3ccc(-c4ccc5oc(N)nc5c4)nc3c2)C1 [Compound 66] : what is it?
Output line: > 7.00

Input line: Reported pIC50 for C[C@@H]1CN(C2CN(c3cnc4ccc(-c5ccc6oc(N)nc6c5)nc4n3)C2)CCN1C [Compound 25] : what is it?
Output line: > 5.00

---

IC50, PI3K γ (Homo sapiens): measured values

Example compounds with recorded IC50:
C[C@H]1CN(C2CN(c3cnc4ccc(-c5ccc6oc(N)nc6c5)nc4c3)C2)CCN1C = < 10 µM
CC(C)N1CCN(c2cnc3ccc(-c4ccc5oc(N)nc5c4)nc3n2)CC1 = < 1 µM
C[C@H]1CN(C2CN(c3cnc4ccc(-c5ccc6oc(N)nc6c5)nc4n3)C2)CCN1 = < 10 µM

Kindly consider the entry below.
Input line: Item: Nc1nc2cc(-c3cnc4ccc(N5CCOCC5)nc4c3)ccc2o1 Test system: PI3K γ (Homo sapiens) Read-out: IC50 Value: ?
Output line: < 10 µM

---

Below, each entry is listed with its recorded IC50.
Target: PI3K δ (Homo sapiens, UniProt O00329)
Construct: purchased Upstate
Sequence (O00329 whole entry): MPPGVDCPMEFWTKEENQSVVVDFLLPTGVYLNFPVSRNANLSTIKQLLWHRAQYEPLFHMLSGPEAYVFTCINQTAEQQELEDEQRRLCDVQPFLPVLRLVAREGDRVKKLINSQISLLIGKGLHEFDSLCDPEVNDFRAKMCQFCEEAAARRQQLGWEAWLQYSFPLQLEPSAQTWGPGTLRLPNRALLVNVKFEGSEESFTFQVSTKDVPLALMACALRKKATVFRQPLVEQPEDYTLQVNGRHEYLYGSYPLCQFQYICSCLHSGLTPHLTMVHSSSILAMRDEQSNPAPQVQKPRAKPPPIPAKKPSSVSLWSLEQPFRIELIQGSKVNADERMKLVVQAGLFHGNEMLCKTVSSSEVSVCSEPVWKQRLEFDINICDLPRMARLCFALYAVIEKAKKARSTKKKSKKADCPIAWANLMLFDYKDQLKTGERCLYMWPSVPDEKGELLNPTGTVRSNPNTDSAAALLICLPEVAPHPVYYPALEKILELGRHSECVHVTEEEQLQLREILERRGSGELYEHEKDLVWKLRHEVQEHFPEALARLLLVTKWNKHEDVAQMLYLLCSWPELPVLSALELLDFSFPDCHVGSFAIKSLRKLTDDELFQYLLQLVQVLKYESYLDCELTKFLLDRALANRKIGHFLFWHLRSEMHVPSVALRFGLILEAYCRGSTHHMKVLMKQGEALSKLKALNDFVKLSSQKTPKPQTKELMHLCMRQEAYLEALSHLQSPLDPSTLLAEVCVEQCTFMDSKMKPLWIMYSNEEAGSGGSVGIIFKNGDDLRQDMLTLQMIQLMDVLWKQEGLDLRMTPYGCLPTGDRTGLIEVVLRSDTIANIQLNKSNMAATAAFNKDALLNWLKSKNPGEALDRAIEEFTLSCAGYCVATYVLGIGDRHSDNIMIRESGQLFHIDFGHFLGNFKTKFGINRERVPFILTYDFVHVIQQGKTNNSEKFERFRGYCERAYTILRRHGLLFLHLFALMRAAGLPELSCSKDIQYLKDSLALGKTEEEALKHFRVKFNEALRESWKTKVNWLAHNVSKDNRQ
Sequence (P27986 whole entry partner): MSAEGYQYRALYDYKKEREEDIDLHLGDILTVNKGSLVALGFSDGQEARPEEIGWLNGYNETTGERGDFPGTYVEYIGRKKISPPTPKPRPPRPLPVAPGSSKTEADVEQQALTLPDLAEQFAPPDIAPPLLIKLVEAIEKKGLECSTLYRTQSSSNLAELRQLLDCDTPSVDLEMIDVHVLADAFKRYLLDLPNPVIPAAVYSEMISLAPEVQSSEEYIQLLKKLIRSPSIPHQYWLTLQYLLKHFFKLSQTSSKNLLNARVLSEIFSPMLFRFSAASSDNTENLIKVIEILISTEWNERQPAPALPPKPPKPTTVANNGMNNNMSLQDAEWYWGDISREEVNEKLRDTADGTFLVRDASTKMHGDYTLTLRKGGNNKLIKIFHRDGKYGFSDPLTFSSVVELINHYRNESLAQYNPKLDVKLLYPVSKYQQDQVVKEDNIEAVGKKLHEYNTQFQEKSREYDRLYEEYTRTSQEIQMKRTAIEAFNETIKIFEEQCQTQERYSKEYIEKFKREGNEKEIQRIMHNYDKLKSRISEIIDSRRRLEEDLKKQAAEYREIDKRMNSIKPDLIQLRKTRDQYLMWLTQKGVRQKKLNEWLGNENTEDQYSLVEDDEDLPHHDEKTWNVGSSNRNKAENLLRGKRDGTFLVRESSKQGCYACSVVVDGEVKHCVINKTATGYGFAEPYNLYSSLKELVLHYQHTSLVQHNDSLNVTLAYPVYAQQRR
Assay: PI 3-Kinase HTRF inhibition assay, PI3K δ
Type: biochemical
Settings: in vitro; read-out: PI3K δ IC50

Example compounds with recorded IC50:
C[C@@H](N)C(=O)N1CCN(c2cnc3ccc(-c4ccc5oc(N)nc5c4)nc3c2)CC1 = < 1 µM
Cc1nccn1C1CN(c2cnc3ccc(-c4ccc5oc(N)nc5c4)nc3c2)C1 = < 1 µM
C[C@H]1CN(c2cnc3ccc(-c4ccc5oc(N)nc5c4)nc3n2)CCN1 = < 10 µM
C[C@H](N)C(=O)N1CCN(c2cnc3ccc(-c4ccc5oc(N)nc5c4)nc3n2)CC1 = < 0.1 µM
C[C@@H]1CN(c2cnc3ccc(-c4ccc5oc(N)nc5c4)nc3n2)CCN1 = < 10 µM

Input line: Item: C[C@@H]1CN(c2cnc3ccc(-c4ccc5oc(N)nc5c4)nc3c2)CCN1 Test system: PI3K δ (Homo sapiens, UniProt O00329) Read-out: IC50 Value: ?
Output line: < 10 µM

Input line: Item: CCN1CCN(C2CN(c3cnc4ccc(-c5ccc6nc(N)[nH]c6c5)nc4c3)C2)CC1 Test system: PI3K δ (Homo sapiens, UniProt O00329) Read-out: IC50 Value: ?
Output line: > 10 µM

Input line: Item: CC(C)(N)C(=O)N1CCN(c2cnc3ccc(-c4ccc5oc(N)nc5c4)nc3n2)CC1 Test system: PI3K δ (Homo sapiens, UniProt O00329) Read-out: IC50 Value: ?
Output line: < 10 µM

Input line: Item: CC(C)(N)C(=O)N1CCN(c2cnc3ccc(-c4ccc5oc(N)nc5c4)nc3c2)CC1 Test system: PI3K δ (Homo sapiens, UniProt O00329) Read-out: IC50 Value: ?
Output line: < 1 µM

Input line: Item: Nc1nc2cc(-c3ccc4ncc(C5=CCOCC5)nc4n3)ccc2o1 Test system: PI3K δ (Homo sapiens, UniProt O00329) Read-out: IC50 Value: ?
Output line: > 10 µM

---

IC50, PI3K γ (Homo sapiens, UniProt P48736): measured values

Input line: Item: Nc1nc2cc(-c3ccc4ncc(N5CCNC(=O)C5)nc4n3)ccc2o1 Test system: PI3K γ (Homo sapiens, UniProt P48736) Read-out: IC50 Value: ?
Output line: < 100 nM

Input line: Item: CCN(CC)c1cnc2ccc(-c3ccc4oc(N)nc4c3)nc2n1 Test system: PI3K γ (Homo sapiens, UniProt P48736) Read-out: IC50 Value: ?
Output line: < 1000 nM

Input line: Item: CN1CC2CN(c3cnc4ccc(-c5ccc6oc(N)nc6c5)nc4n3)CC2C1 (centres unmarked) Test system: PI3K γ (Homo sapiens, UniProt P48736) Read-out: IC50 Value: ?
Output line: < 10000 nM

Input line: Item: CC(C)N1CCN(C2CN(c3cnc4ccc(-c5ccc6oc(N)nc6c5)nc4n3)C2)CC1 Test system: PI3K γ (Homo sapiens, UniProt P48736) Read-out: IC50 Value: ?
Output line: > 10000 nM

Input line: Item: Nc1nc2cc(-c3ccc4ncc(N5CC(N6CCNCC6)C5)nc4n3)ccc2o1 Test system: PI3K γ (Homo sapiens, UniProt P48736) Read-out: IC50 Value: ?
Output line: > 10000 nM

Input line: Item: Nc1nc2cc(-c3ccc4ncc(C5=CCOCC5)nc4n3)ccc2o1 Test system: PI3K γ (Homo sapiens, UniProt P48736) Read-out: IC50 Value: ?
Output line: < 100 nM

Input line: Item: CN1CCN(C2CN(c3ccc4ncc(-c5ccc6oc(N)nc6c5)cc4n3)C2)CC1 Test system: PI3K γ (Homo sapiens, UniProt P48736) Read-out: IC50 Value: ?
Output line: > 10000 nM

Input line: Item: CN1CCN(c2cnc3ccc(-c4ccc5oc(N)nc5c4)nc3n2)CC1 Test system: PI3K γ (Homo sapiens, UniProt P48736) Read-out: IC50 Value: ?
Output line: < 10000 nM

Input line: Item: C[C@@H]1CN(C2CN(c3cnc4ccc(-c5ccc6oc(N)nc6c5)nc4c3)C2)CCN1 Test system: PI3K γ (Homo sapiens, UniProt P48736) Read-out: IC50 Value: ?
Output line: < 1000 nM

Input line: Item: Nc1nc2cc(-c3ccc4ncc(-c5cccnc5)nc4n3)ccc2o1 Test system: PI3K γ (Homo sapiens, UniProt P48736) Read-out: IC50 Value: ?
Output line: < 1000 nM

---

Target: PI3K δ (Homo sapiens, UniProt O00329)
Construct: purchased Upstate
Test: PI 3-Kinase HTRF inhibition assay, PI3K δ
Assay type: biochemical
Details: in vitro; read-out: PI3K δ IC50
Experimental: Commercial kits or systems for assaying PI3-K activities are available. The commercially available kits or systems can be used to screen for inhibitors and/or agonists of PI3-Ks including but not limited to PI 3-Kinase α, β, δ, and γ. An exemplary system is PI 3-Kinase (human) HTRF™ Assay from Upstate. […] The plate is sealed, incubated for 1 hour at room temperature, and then read on an appropriate plate reader. Data is analyzed and IC50s are generated using GraphPad Prism 5. […]
pIC50: −log10 of the molar value.
Below, each entry is listed with its recorded pIC50.

C[C@H]1CN(c2cnc3ccc(-c4ccc5oc(N)nc5c4)nc3c2)CCN1 = > 5.00
Nc1nc2cc(-c3ccc4ncc(N5CC(N6CCOCC6)C5)cc4n3)ccc2o1 = > 5.00
C[C@@H]1COCCN1C1CN(c2cnc3ccc(-c4ccc5oc(N)nc5c4)nc3n2)C1 = < 5.00

Kindly consider the entry below.
Input line: Item: Nc1nc2cc(-c3ccc4ncc(N5CC(N6CC7CCC(C6)O7)C5)nc4n3)ccc2o1 Test system: PI3K δ (Homo sapiens, UniProt O00329) Read-out: pIC50 Value: ?
Output line: < 5.00

---

Target: PI3K α (Homo sapiens, UniProt P42336)
Construct: purchased Upstate
Sequence (P42336 whole entry, one chain of several): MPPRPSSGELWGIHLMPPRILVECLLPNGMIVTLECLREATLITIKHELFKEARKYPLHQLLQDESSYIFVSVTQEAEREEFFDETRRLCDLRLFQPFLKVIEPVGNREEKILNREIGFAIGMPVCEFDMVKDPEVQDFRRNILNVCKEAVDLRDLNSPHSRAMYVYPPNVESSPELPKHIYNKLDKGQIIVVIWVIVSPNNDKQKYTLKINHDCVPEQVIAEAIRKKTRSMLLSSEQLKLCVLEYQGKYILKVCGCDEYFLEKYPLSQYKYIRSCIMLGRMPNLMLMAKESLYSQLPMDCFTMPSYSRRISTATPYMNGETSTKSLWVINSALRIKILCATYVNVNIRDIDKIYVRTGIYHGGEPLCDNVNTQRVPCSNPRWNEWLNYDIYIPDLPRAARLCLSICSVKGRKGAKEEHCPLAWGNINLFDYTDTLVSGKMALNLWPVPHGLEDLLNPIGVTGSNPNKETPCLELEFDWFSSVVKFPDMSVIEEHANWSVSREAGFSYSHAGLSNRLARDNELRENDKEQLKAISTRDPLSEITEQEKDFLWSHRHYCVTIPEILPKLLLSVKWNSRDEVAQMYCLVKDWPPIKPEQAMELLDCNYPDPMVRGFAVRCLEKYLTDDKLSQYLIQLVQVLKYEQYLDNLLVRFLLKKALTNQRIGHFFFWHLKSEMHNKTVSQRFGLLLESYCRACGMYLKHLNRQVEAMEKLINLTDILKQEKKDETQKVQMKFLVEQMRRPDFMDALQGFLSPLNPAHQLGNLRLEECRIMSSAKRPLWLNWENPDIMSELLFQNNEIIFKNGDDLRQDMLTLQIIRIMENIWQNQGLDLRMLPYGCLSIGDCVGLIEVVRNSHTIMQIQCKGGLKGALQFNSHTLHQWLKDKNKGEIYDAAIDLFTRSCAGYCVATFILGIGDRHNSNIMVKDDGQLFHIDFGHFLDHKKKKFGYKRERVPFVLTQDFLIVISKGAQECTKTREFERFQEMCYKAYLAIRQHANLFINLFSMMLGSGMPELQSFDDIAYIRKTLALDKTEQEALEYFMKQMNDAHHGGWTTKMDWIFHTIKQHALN
Assay: PI 3-Kinase HTRF inhibition assay, PI3K α
Type: biochemical
Details: in vitro; read-out: PI3K α IC50
Experimental: Commercial kits or systems for assaying PI3-K activities are available. The commercially available kits or systems can be used to screen for inhibitors and/or agonists of PI3-Ks including but not limited to PI 3-Kinase α, β, δ, and γ. An exemplary system is PI 3-Kinase (human) HTRF™ Assay from Upstate. […] The plate is sealed, incubated for 1 hour at room temperature, and then read on an appropriate plate reader. Data is analyzed and IC50s are generated using GraphPad Prism 5. […]
Measured Property: IC50

Example compounds with recorded IC50:
CN1CCN(C2CN(c3cnc4ccc(-c5ccc6oc(N)nc6c5)nc4c3)C2)CC1 [Compound 74] = < 100 nM
Nc1nc2cc(-c3ccc4ncc(N5CCNC(=O)C5)nc4n3)ccc2o1 [Compound 29] = < 100 nM
Nc1nc2cc(-c3ccc4ncc(N5C6CCC5COC6)nc4n3)ccc2o1 [Compound 19] = < 100 nM
Nc1nc2cc(-c3ccc4ncc(N5CC(N6CCOCC6)C5)nc4n3)ccc2o1 [Compound 5] = < 100 nM
Nc1nc2cc(-c3ccc4ncc(-c5cccnc5)nc4n3)ccc2o1 [Compound 3] = < 1000 nM

Input line: Reported IC50 for C[C@@H]1COCCN1C1CN(c2cnc3ccc(-c4ccc5oc(N)nc5c4)nc3n2)C1 [Compound 49] : what is it?
Output line: < 10000 nM

Input line: Reported IC50 for CCOC(=O)N1CCN(c2cnc3ccc(-c4ccc5oc(N)nc5c4)nc3c2)CC1 [Compound 36] : what is it?
Output line: < 100 nM

Input line: Reported IC50 for Nc1nc2cc(-c3ccc4ncc(N5CC(N6CCOCC6)C5)cc4n3)ccc2o1 [Compound 53] : what is it?
Output line: < 100 nM

Input line: Reported IC50 for Nc1nc2cc(-c3ccc4ncc(N5CCC(O)CC5)cc4n3)ccc2o1 [Compound 62] : what is it?
Output line: < 100 nM

Input line: Reported IC50 for CC(C)(N)C(=O)N1CCN(c2cnc3ccc(-c4ccc5oc(N)nc5c4)nc3n2)CC1 [Compound 40] : what is it?
Output line: < 100 nM

Input line: Reported IC50 for Nc1nc2cc(-c3ccc4ncc(N5CC(N6CCNCC6)C5)nc4n3)ccc2o1 [Compound 34] : what is it?
Output line: < 1000 nM

Input line: Reported IC50 for C[C@H]1CN(c2cnc3ccc(-c4ccc5oc(N)nc5c4)nc3n2)CCN1 [Compound 1] : what is it?
Output line: < 1000 nM

Input line: Reported IC50 for CN1CCN(C2CN(c3ccc4ncc(-c5ccc6oc(N)nc6c5)cc4n3)C2)CC1 [Compound 84] : what is it?
Output line: < 10000 nM

Input line: Reported IC50 for C[C@H]1CN(C2CN(c3cnc4ccc(-c5ccc6oc(N)nc6c5)nc4n3)C2)CCN1 [Compound 10] : what is it?
Output line: < 100 nM

The values you see were collected from patent US9359352B2.
